pIC50: −log10 of the molar value.
// note: pIC50 values for 3-phosphoinositide-dependent protein kinase 1 (Homo sapiens) were reported in different studies

Q: For the compound `C#Cc1ccc2nc(Nc3ccccc3)ncc2c1` , what pIC50 is on record?
A: > 5.30

Q: For the compound shown here, `COc1ccc2nc(Nc3ccc(C(N)=O)cc3)ncc2c1` , give the reported pIC50.
A: > 5.30

Q: Given the entry `Nc1cc(SCC(=O)Nc2cccc(C(F)(F)F)c2)nc(N)n1` , report its measured pIC50.
A: < 5.70

Q: Data request, read-out pIC50, for `Cc1nc2cnc3ccc(C#Cc4cccnc4)cc3c2n1-c1ccc(CCN)cc1`
A: ≥ 6.30

Q: pIC50 lookup needed for `CC(=O)Nc1cc(CN(C)C)cc(Nc2ncc3cc(-c4nccs4)ccc3n2)c1` , thanks.
A: > 5.30

Next:
Q: Fill blank: measured pIC50 of the compound COc1cc2c(cc1OCCC1CCCN1C)ncc1c(N)nc3c(C)c(N)ccc3c12 (stereo not drawn) is ____.
A: 6.54

Q: I am curious: what pIC50 value has been reported for `CSc1nc(COC(=O)Nc2cccc(C(F)(F)F)c2)cc(NCc2ccccc2)n1` ?
A: < 5.70

Q: Entry `COc1ccc(OC)c(C(=O)CSc2nc(N)nc(SC)c2C#N)c1` has what pIC50?
A: < 5.70

Q: I'd like to know its pIC50. The compound in question is `COc1cc(C#N)cc2cnc(Nc3ccc(S(N)(=O)=O)cc3)nc12`
A: > 5.30

Q: Could you tell me which pIC50 is on file for `CSc1nc(N)nc(SCC(=O)Nc2cccc(C(F)(F)F)c2)c1C#N` ?
A: < 5.70

Q: If you can, please state the reported pIC50 value of `COc1cc2c(cc1OCCCOCc1ccccc1)ncc1c(N)nc3c(C)c(N)ccc3c12` .
A: 5.61

Q: pIC50 lookup needed for `C#Cc1ccc2nc(Nc3cc(CN)cc(NC(C)=O)c3)ncc2c1` , thanks.
A: > 5.30

###

The entries below pair compounds with IC50 values for 3-phosphoinositide-dependent protein kinase 1 (Homo sapiens, UniProt O15530), as found in several publications.

Consider the reported IC50 for these compounds:
Q: Quick one: IC50 of `C#Cc1ccc2nc(Nc3ccc(C(=O)N4CCOCC4)cc3)ncc2c1Cl` ?
A: < 5 µM

Q: // IC50 lookup, key: `COc1cc2cnc(Nc3cc(CN4CCOCC4)cc(NC(C)=O)c3)nc2cc1OC`
A: < 5 µM

Q: Requested read-out: IC50. Entry: `COc1cc2c(cc1OCCc1ccc(N(C)C)cc1)ncc1c(N)nc3c(C)c(N)ccc3c12`
A: 0.667 µM

Q: I would be grateful if you could share the reported IC50 for `N#Cc1ccc2nc(Nc3ccc(N4CCOCC4)cc3)ncc2c1` .
A: < 5 µM

Q: # lookup: IC50 of `COc1cc2c(cc1OCCC(C)(C)C)ncc1c(N)nc3c(C)c(N)ccc3c12`
A: 6.44 µM

Further cases:
Q: Find the recorded IC50 belonging to `C#Cc1ccc2nc(Nc3ccc(C(N)=O)cc3)ncc2c1` and report it.
A: < 5 µM

Q: # input compound: `COc1cc2cnc(Nc3ccc(S(N)(=O)=O)cc3)nc2cc1OC` ; wanted: its IC50
A: < 5 µM

Q: Would you mind telling me what IC50 value was observed for `C#Cc1ccc2nc(Nc3cc(CN4CCOCC4)cc(NS(C)(=O)=O)c3)ncc2c1` ?
A: < 5 µM

Q: Consider the compound Cn1cc(-c2cnc3[nH]cc(-c4cc([C@@](C)(O)c5ccccc5F)nc(N)n4)c3n2)cn1 (single isomer, unassigned) and give its measured IC50.
A: 0.043 µM

Q: Look at this compound and give its reported IC50. `COc1cc2ncc3c(N)nc4ccccc4c3c2cc1OC`
A: 2.4 µM
